assayRemarks: PSAC antagonists in infected red cells, primary screen, cell-based, P. falciparum Indochina, OD700, 2 h (AID 1155);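 also: lysis reports solute entry through the parasite surface anion channel PSAC; channel blockers reduce lysis of infected cells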
experimentalContext: P. falciparum Indochina infected erythrocytes, osmotic lysis OD700, called active from +8 up or from −8 down
Active and inactive are the calls of the source.
Classes used: active, inactive

- compound: "COC(=O)CC=C[C@@H](C)[C@@H](C=NOC[C@@H](O)COCc1ccco1)OC"
  assignedClass: "inactive"
- compound: "COc1ccc(O[C@H]2C=C[C@@H](c3ccccc3)O[C@@H]2COC(=O)NCc2cccc3ccccc23)cc1"
  assignedClass: "inactive"
- compound: "CC(=O)OC[C@H]1O[C@@H](ON=C2[C@H]3CCn4c(=O)n(-c5ccccc5)c(=O)n4[C@H]3[C@H](O)[C@@H]3O[C@H]23)[C@H](OC(C)=O)[C@@H](OC(C)=O)[C@@H]1OC(C)=O"
  assignedClass: "inactive"
- compound: "COc1ccc(COC(=O)NN=C2C[C@@H](O)[C@@H](O)[C@@H]3[C@@H]4C(=O)N([C@@H](C)c5ccccc5)C(=O)[C@@H]4CC[C@@H]23)cc1"
  assignedClass: "inactive"
- compound: "Cc1cc2c(nc1C)CCCCN2CC(O)CN1CCCc2nc(-c3ccc(Br)cc3)ccc21 (configuration not stated)"
  assignedClass: "inactive"
- compound: "COc1ccc(O[C@H]2C=C[C@@H](c3ccccc3)O[C@@H]2CON=C(C)CCN2CCCc3nc(C)c(C)cc32)cc1"
  assignedClass: "inactive"
- compound: "COc1cccc([C@H](O)Cn2cc(-c3ccc(CON=C(C)C)cc3)nn2)c1"
  assignedClass: "active"
- compound: "COCCNC(=O)OCC1CCCC2(CC(OC(=O)NCc3cccc4ccccc34)CC(CCC(=O)N[C@@H](C)C(=O)OC)O2)O1 (some centres not stated)"
  assignedClass: "inactive"
- compound: "CO[C@@H]1COC(=O)[C@@H]2CCCN2C(=O)[C@@H](C)COC(=O)CCC[C@H]1C"
  assignedClass: "inactive"
- compound: "O=C1CCCC=C1C(O)COCc1ccccc1 (configuration not stated)"
  assignedClass: "inactive"
- compound: "COC(=O)C1=C(C)N(Cc2ccccc2)C2=C3C(=O)OCC[C@@H]3[C@@](O)(C(=O)OC)C(=O)N2[C@@H]1c1ccccc1"
  assignedClass: "inactive"
- compound: "CON(C)C(=O)c1nnc2c(n1)[nH]c1ccccc12"
  assignedClass: "inactive"
